Reference source: PubChem BioAssay AID2662

# testedTarget: Histone-lysine N-methyltransferase 2A (Homo sapiens) (UniProt Q03164)
# Sequence (Q03164 whole entry, looked up, the tested form may be a part): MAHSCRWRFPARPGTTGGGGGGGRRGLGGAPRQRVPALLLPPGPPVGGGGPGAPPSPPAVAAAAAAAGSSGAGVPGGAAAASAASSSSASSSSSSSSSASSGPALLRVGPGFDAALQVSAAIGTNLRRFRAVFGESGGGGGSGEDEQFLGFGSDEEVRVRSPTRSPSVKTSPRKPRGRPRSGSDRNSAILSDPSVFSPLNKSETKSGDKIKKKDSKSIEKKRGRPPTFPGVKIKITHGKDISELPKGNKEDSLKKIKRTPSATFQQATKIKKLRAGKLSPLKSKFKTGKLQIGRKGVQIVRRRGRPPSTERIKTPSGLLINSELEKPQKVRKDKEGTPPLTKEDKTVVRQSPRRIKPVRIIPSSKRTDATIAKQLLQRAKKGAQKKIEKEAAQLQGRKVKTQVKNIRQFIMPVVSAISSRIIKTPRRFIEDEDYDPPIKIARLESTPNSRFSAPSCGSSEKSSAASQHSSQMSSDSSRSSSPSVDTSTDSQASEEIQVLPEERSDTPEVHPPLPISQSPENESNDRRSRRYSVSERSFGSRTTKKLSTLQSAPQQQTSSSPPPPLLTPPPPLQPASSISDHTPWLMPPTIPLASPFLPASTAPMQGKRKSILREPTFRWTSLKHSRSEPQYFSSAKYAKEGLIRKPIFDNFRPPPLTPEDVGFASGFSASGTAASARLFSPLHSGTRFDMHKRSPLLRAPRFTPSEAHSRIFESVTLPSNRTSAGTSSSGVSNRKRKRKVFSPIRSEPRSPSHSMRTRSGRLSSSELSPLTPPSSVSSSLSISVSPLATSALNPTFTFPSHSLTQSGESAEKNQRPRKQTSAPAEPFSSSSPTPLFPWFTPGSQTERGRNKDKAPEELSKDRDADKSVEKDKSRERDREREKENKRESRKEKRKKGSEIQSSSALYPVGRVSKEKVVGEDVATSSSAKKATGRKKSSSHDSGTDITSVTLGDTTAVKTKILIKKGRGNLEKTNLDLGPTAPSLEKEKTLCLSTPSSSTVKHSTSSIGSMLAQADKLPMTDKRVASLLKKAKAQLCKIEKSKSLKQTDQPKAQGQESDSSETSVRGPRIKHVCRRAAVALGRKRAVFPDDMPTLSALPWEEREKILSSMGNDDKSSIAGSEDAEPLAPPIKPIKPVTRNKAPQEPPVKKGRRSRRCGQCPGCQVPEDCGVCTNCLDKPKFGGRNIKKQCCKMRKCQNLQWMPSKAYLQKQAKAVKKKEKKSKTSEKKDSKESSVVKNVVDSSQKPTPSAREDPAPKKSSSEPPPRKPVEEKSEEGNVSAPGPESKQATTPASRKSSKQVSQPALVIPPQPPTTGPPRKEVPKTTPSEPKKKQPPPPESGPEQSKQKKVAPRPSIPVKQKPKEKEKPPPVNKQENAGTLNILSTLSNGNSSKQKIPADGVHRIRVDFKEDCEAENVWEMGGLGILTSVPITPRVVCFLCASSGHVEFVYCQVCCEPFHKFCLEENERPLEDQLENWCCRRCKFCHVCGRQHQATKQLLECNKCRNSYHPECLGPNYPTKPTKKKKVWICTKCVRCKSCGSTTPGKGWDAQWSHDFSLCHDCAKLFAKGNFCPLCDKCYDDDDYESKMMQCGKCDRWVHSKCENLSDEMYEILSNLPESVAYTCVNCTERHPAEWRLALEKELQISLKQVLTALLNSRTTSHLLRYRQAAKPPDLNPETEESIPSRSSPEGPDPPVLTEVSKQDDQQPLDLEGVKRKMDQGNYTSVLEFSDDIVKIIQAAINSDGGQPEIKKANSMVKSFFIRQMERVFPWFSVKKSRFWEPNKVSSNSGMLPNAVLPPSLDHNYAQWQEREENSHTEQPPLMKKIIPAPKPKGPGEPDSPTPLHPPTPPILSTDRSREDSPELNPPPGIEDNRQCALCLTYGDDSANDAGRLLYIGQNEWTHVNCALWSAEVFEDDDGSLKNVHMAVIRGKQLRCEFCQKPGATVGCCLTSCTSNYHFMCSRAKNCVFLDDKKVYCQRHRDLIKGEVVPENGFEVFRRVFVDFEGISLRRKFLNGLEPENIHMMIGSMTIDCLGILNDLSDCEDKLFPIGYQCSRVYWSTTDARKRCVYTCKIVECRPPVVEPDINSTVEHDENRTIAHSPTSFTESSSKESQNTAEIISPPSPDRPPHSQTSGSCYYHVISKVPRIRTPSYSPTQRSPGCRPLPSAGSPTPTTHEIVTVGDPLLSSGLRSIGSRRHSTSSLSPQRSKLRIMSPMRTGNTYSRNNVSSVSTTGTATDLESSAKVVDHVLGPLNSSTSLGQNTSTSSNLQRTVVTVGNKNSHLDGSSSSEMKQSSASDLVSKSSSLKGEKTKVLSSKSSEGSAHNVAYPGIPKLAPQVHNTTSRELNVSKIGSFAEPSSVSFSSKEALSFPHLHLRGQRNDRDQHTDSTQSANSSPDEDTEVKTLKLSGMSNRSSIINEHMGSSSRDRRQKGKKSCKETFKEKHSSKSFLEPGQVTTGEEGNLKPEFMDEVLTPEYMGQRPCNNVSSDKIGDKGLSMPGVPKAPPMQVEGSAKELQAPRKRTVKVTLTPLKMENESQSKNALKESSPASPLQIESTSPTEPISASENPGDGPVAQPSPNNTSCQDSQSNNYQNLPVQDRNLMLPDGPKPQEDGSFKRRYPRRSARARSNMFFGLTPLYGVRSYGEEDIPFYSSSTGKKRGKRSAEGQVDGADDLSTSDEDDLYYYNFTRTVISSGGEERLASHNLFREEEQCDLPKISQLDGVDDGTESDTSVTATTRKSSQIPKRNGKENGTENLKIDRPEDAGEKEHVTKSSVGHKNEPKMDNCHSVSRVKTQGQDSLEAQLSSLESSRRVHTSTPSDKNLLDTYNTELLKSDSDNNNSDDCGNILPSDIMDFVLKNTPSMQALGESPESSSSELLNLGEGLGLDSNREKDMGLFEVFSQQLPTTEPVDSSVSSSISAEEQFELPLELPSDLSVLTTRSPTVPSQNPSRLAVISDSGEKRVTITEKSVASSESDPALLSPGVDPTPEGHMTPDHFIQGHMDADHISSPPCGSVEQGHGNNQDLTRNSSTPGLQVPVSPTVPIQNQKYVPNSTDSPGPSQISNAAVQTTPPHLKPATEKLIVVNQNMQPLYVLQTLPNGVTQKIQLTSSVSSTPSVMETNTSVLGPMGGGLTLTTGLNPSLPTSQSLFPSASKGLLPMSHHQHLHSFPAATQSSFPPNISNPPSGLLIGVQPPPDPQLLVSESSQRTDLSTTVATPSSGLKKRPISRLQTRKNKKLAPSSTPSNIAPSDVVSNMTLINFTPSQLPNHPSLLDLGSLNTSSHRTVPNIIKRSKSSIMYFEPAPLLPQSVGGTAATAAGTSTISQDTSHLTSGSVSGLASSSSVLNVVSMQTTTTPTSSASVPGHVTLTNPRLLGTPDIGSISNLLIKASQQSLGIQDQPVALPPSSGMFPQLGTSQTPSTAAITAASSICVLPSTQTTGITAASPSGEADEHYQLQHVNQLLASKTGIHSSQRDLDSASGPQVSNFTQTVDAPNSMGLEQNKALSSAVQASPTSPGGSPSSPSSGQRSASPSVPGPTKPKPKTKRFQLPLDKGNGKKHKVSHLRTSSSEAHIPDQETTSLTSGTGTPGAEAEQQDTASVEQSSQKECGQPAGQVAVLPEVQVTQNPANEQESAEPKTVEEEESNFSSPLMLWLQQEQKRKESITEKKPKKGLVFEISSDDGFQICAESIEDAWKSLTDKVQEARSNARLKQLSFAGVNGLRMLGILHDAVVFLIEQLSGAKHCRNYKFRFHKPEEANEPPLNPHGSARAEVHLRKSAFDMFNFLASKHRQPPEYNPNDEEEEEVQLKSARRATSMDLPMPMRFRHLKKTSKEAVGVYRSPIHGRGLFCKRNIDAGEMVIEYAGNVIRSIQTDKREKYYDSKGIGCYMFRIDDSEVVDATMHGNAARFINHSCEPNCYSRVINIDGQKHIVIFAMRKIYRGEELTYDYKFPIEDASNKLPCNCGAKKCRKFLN
# assay: qHTS Fluorescence Polarization Assay for Inhibitors of MLL CXXC domain - DNA interaction
# particulars: MLL-CXXC / FITC-HOXA9 DNA fluorescence polarization; series mostly up to 115 µM
Screen size: about 290,000 compounds; about 110 (0.038%) were called active. Another 3% or so got no clear call; they are omitted. Calls come from the whole dose curve; as a rule, active = well fitted inhibition curve with a large enough effect in the polarisation, with a control signal flat (not every such curve was filed as active); inconclusive = small, poorly fitted or top-dose-only effect, or effect the other way, or a change in a side signal; inactive = no such curve, though single readings can be large or run the other way; the % refers to the polarisation. The sample holds actives, similar compounds and a random draw of the others, so the mix is not that of the screen.
Pick one and only one: 1 for active, 0 for inactive

A selection of reference data follows.
In [3]: df
Out[3]:
                                   molecule  assignedlabel
0  COCC1CCN(C(=O)C2CCC(=O)N(CC3CCCCC3)C2)CC1 (stereo unspecified)              0
1  COc1ccc(S(=O)(=O)Nc2c(C)n(C)n(-c3ccccc3)c2=O)cc1              0
2  CCCc1cc(C(=O)N2CCCC(CO)(CCCc3ccccc3)C2)n(C)n1 (stereo unspecified)              0
3          O=C(O)c1ccc(S(=O)(=O)N2CCOCC2)o1              0
4  Clc1ccc(C(Cn2ccnc2)OCc2ccsc2Cl)c(Cl)c1 (stereo unspecified)              0
5  COc1ccccc1C(=O)NC(CCSC)C(=O)NNC(=O)c1csc(N2CCOCC2)n1 (stereo unspecified)              0
6  COc1ccccc1OCC(=O)Nc1c2c(nn1-c1ccc(F)cc1)CS(=O)(=O)C2              0
7  O=C(c1ccccc1)N1CCN(C(=O)c2cc3nc(-c4ccccc4)cc(C(F)(F)F)n3n2)CC1              0

INPUT: Given "Cc1ccc(S(=O)(=O)N/N=C(\c2ccccc2)C2CC2)cc1" , state the outcome it received in this test.
OUTPUT: 0

INPUT: Given "CCCCC(=O)Nc1c2c(nn1-c1ccc([N+](=O)[O-])cc1)CS(=O)(=O)C2" , state the outcome it received in this test.
OUTPUT: 0

====

# testedTarget: Histone-lysine N-methyltransferase 2A (Homo sapiens)
# assay: qHTS Fluorescence Polarization Assay for Inhibitors of MLL CXXC domain - DNA interaction
# particulars: MLL-CXXC / FITC-HOXA9 DNA fluorescence polarization; series mostly up to 115 µM
Out of some 290,000 compounds screened, about 110 (0.038%) were called active. Not shown: some 3% with an inconclusive outcome. This is one part of a sample in which actives are shown more often than they occur.
measuredParameter: outcome

>>> print(df.to_string())
                                   compound  measuredvalue
0  COc1ccc(C(=O)Nc2ccc(C(=O)NCC3CCCO3)cc2)c(OC)c1OC (stereo not given)       inactive
1           Cc1cnc(C(=O)Oc2cccc(Cl)c2Cl)cn1       inactive
2  NC(=O)Cn1cc(/C=N\NS(=O)(=O)c2ccccc2)c2ccccc21       inactive
3  O=C(NCc1ccccc1)C(c1ccccc1)N(C(=O)c1csnn1)c1ccc(F)cc1 (stereo not given)       inactive
4  COc1ccc(NC(=S)N2CCC(NC(=O)c3cccc(F)c3)CC2)cc1       inactive

Let us examine a further case.
INPUT: Output measured outcome for this item: "CCOC(=O)c1c(C)[nH]c(C(=O)NCCN2CCOCC2)c1C"
OUTPUT: inactive
